B1: EEHEE_rd3_1049 (parent)
chain: TTVKLGDIKVTFDNPEKAKKYAQKLAKIYQLTVHVHGDTIHVK

Variants of: B1
Assay: folding stability dG (cDNA display proteolysis); higher = more stable
Settings: PBS, room temperature
Attribute: folding stability dG
Number only, in kcal/mol; omit the unit.

Ask | What value of folding stability dG has been reported for the following variant? Q23H
Reply | 1.9
